Documented normalized growth across a set of compounds
Experiment: chemical genetic growth profiling, strain panel (AID 1159580);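 further: tested at 20 µM; growth read once vehicle control cultures reached saturation at 30 °C; 1 = growth at the plate median or of vehicle wells; lower values mean less growth of the strain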
Settings: S. cerevisiae deletion strains, growth OD, locus YBR021W, strain FUR4, active compounds read low
The campaign covered roughly 5,500 compounds. About 2,000 (36%) were called active. Not shown: some 18% with an inconclusive outcome. This is one part of the list.
Enter the number alone.

Would you please look over these solved cases?
[[record]]
compound = "CCC(C)C(=O)O[C@H]1[C@H](O)C2C(CN3CC(C)CCC3[C@@]2(C)O)C2C[C@]34O[C@]5(O)C(OC(=O)C(C)(O)CC)CC[C@@]3(C)C5C(OC(C)=O)[C@@H](OC(C)=O)C4[C@@]21O (stereo not given in full)"
resultnumber = 1.01

[[record]]
compound = "COc1ccc2[nH]cc(CCN)c2c1"
resultnumber = 0.985


The reported value for `C/C=C1\[C@H]2C=C(C)C[C@]1(N)c1ccc(=O)[nH]c1C2` in terms of normalized growth is 1.01

The reported value for `Nc1c2ccccc2nc2ccccc12` in terms of normalized growth is 1.02

The reported value for `NC12CC3CC(CC(C3)C1)C2` in terms of normalized growth is 0.992

This collection of values is drawn from PubChem BioAssay AID1159580.
